Every entry's value here was drawn from ChEMBL document CHEMBL5335800.

target: Methylcytosine dioxygenase TET1 (Homo sapiens); assay: Inhibition of N-terminal 3xFlag-tagged human TET1 catalytic domain (E1418 to V2136 residues) expressed in Sf9 cells using 5-methylcytosine as substrate preincubated for 10 mins followed by DNA-cofactor addition and measured after 30 mins by Alphascreen assay; details: sf9; read-out: IC50
pIC50: −log10 of the molar value.
Please provide measured pIC50 for the entries that follow.

So what does the record say about pIC50 for O=C(O)CNC(=O)c1nc(Cl)c2ccccc2c1O ? ≤ 4.00

And then Cc1nc(C(=O)NCC(=O)O)c(O)c2ccc(Oc3ccccc3)cc12 , what is it? ≤ 4.00

Okay, and O=C(O)CNC(=O)c1c(O)n(C2CCCCC2)c(=O)n(C2CCCCC2)c1=O ? ≤ 4.00

What do we get for O=C(O)CNC(=O)c1c(O)c2ccccc2n(Cc2ccccc2)c1=O ? ≤ 4.00

---

target: Methylcytosine dioxygenase TET1 (Homo sapiens, UniProt Q8NFU7)
Sequence (Q8NFU7 whole entry, the tested form may be a part): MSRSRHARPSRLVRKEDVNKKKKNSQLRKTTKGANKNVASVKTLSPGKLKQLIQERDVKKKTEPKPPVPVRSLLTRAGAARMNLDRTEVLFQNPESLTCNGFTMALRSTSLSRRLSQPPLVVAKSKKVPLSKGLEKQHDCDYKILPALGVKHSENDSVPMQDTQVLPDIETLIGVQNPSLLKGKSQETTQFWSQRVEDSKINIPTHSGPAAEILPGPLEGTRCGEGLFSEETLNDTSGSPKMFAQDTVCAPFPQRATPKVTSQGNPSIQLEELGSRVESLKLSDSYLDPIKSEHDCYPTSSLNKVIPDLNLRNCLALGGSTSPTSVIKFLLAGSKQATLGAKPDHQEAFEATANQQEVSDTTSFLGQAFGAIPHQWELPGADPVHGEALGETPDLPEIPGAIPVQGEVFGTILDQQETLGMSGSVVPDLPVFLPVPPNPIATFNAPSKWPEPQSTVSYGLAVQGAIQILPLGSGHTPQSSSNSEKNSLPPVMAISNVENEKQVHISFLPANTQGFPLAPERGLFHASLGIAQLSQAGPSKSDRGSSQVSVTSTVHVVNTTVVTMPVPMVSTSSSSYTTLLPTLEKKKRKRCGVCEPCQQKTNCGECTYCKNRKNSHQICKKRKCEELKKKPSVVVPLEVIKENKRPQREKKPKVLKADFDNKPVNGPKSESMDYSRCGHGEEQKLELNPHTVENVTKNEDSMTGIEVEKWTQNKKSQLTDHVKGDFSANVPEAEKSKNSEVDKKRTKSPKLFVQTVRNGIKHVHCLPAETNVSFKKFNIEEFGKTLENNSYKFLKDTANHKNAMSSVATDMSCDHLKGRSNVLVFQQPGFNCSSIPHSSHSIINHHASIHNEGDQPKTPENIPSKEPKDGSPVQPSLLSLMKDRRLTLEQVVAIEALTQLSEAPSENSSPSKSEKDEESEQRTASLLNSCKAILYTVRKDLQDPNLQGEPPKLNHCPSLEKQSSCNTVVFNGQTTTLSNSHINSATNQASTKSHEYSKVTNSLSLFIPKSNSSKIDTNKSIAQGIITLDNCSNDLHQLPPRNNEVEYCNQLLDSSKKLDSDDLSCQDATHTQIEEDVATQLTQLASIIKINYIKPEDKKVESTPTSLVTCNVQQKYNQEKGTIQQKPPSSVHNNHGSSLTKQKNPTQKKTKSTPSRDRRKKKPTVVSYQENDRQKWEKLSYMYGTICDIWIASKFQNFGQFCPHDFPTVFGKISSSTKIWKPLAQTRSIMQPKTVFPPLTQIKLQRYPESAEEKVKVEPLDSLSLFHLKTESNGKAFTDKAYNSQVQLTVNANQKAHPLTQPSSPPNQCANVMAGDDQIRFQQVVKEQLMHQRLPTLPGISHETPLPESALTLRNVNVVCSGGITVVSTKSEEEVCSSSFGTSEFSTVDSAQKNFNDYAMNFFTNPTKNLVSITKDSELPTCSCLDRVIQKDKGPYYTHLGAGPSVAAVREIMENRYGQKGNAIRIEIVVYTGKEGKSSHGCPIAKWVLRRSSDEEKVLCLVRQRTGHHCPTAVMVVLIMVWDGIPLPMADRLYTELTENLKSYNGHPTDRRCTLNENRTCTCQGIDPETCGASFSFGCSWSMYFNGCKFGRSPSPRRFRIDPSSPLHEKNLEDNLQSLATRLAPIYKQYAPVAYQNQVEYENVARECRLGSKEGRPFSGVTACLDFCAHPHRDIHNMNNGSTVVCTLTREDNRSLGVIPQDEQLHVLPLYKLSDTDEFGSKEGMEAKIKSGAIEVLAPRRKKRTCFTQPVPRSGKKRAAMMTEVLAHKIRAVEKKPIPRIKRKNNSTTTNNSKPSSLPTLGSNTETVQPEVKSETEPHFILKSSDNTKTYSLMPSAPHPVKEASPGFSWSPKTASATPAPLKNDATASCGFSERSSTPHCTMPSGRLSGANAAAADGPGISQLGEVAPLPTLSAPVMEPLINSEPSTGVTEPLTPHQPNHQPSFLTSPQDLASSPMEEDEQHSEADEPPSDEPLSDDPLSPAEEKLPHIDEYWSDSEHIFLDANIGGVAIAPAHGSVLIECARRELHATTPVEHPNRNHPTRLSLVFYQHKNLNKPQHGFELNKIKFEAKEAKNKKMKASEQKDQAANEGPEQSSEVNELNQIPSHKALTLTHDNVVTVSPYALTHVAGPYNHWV
pEC50: −log10 of the molar value.
parameter measured: pEC50

Form entry - test system: Methylcytosine dioxygenase TET1 (Homo sapiens, UniProt Q8NFU7); read-out: pEC50; compound: O=c1c(-n2ccnn2)c[nH]n1-c1cc(N2CCOCC2)ncn1 ~4.00

---

For each of the compounds below, state its IC50.
biological target: Methylcytosine dioxygenase TET3 (Homo sapiens, UniProt O43151); experiment: Inhibition of human TET3 catalytic domain (E824 to I1795 residues) expressed in mammalian cells using 5-methylcytosine as substrate preincubated for 10 mins followed by DNA-cofactor addition and measured after 10 mins by Alphascreen assay; details: read-out: IC50
Sequence (O43151 whole entry, the tested form may be a part): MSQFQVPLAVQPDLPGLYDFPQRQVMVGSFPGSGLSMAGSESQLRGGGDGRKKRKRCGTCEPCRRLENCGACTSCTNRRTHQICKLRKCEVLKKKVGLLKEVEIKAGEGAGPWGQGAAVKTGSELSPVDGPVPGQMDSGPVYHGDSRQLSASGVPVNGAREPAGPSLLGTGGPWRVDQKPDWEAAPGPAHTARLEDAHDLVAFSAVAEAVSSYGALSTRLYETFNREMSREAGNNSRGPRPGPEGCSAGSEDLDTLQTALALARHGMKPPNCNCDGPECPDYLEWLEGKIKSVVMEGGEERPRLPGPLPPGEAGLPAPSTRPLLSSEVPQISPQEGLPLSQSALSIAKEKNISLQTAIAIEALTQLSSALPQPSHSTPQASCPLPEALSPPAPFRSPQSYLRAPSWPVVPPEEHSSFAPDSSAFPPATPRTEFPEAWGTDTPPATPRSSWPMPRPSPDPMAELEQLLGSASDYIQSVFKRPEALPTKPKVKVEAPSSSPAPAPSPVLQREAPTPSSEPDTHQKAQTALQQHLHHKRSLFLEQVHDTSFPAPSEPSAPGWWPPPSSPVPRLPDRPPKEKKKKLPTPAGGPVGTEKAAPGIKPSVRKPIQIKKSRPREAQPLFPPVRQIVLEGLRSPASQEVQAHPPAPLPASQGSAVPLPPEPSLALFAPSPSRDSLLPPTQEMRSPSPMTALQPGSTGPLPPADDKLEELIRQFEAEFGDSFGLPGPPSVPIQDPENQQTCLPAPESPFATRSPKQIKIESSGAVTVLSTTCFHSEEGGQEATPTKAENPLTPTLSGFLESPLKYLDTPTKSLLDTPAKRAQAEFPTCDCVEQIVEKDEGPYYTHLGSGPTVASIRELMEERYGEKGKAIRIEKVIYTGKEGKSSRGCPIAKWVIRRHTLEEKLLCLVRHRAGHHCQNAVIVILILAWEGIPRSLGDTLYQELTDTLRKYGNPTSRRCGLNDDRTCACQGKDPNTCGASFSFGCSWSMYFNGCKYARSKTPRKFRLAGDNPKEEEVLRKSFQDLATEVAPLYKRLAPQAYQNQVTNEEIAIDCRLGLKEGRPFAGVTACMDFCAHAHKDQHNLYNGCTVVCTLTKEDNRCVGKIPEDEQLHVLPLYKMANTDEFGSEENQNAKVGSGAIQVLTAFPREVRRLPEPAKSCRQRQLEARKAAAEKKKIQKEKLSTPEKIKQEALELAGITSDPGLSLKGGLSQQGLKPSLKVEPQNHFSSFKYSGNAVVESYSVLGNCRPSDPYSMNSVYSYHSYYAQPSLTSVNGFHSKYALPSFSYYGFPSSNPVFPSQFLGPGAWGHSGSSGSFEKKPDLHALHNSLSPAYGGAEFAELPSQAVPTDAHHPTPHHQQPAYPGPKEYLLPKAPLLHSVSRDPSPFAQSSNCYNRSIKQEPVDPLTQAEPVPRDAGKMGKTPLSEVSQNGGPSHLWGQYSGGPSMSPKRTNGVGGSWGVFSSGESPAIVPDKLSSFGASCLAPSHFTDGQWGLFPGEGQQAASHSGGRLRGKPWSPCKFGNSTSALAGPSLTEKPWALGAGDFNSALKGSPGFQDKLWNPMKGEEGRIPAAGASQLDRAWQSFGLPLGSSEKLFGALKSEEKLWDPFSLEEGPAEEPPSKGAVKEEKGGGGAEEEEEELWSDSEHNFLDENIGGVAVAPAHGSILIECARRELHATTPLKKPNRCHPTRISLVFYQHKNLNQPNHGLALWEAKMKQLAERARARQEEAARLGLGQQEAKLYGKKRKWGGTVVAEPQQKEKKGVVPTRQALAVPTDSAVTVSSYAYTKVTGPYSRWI

Using the record for O=C(O)CNC(=O)c1nc(Cl)c2ccccc2c1O , report its IC50. ≥ 100 µM

Next up: O=C(O)CNC(=O)c1c(O)c2ccccc2n(Cc2ccccc2)c1=O ≥ 100 µM

Ok, now CN(c1ccccc1)c1ccc2c(c1)CCC[C@H]2CNc1cnccc1C(=O)O > 100 µM

Would you mind doing CCN(CCN(C)C)C(=O)CNCc1cc(C(N)=O)ccn1 as well? > 100 µM

Now consider Cc1nc(C(=O)NCC(=O)O)c(O)c2ccc(Oc3ccccc3)cc12 . ≥ 100 µM

Would you kindly repeat that for CC(C)c1c(-c2ccccc2)[nH]c2c(C#N)cnn2c1=O ? > 100 µM

Subsequent entry: O=C(O)CNC(=O)c1c(O)n(C2CCCCC2)c(=O)n(C2CCCCC2)c1=O ≥ 100 µM

---

For each entry below, report its IC50 value.
molecular target: Methylcytosine dioxygenase TET3 (Homo sapiens); assay: Inhibition of human TET3 catalytic domain (E824 to I1795 residues) expressed in mammalian cells using 5-methylcytosine as substrate preincubated for 10 mins followed by DNA-cofactor addition and measured after 10 mins by Alphascreen assay; details: read-out: pIC50 (converted)

Could you share what IC50 was measured for O=C(O)CNC(=O)c1nc(Cl)c2ccccc2c1O , tested on Methylcytosine dioxygenase TET3 (Homo sapiens)? ≥ 100 µM

Next entry: O=C(O)CNC(=O)c1c(O)c2ccccc2n(Cc2ccccc2)c1=O ≥ 100 µM

Cool, now O=C(O)CNC(=O)c1c(O)n(C2CCCCC2)c(=O)n(C2CCCCC2)c1=O ≥ 100 µM

Same question for Cc1nc(C(=O)NCC(=O)O)c(O)c2ccc(Oc3ccccc3)cc12 please. ≥ 100 µM

---

target: Methylcytosine dioxygenase TET3 (Homo sapiens); assay: Inhibition of human TET3 catalytic domain (E824 to I1795 residues) expressed in mammalian cells using 5-methylcytosine as substrate at 100 uM preincubated for 10 mins followed by DNA-cofactor addition and measured after 10 mins by Alphascreen assay relative to control; details: time 20.0 min
For each record, write down the corresponding inhibition.

Could you tell me which inhibition is on file for CC(C)c1c(-c2ccccc2)[nH]c2c(C#N)cnn2c1=O ? < 20%

Lookup O=C(O)CNC(=O)c1c(O)c2ccccc2n(Cc2ccccc2)c1=O < 20%

Likewise for O=C(O)CNC(=O)c1c(O)n(C2CCCCC2)c(=O)n(C2CCCCC2)c1=O ? 36%

What about CCN(CCN(C)C)C(=O)CNCc1cc(C(N)=O)ccn1 ? < 20%

---

biological target: Methylcytosine dioxygenase TET2 (Homo sapiens, UniProt Q6N021); settings: sf9
pIC50: −log10 of the molar value.
parameter measured: pIC50

Form field: reported pIC50 of O=C(O)CNC(=O)c1c(O)n(C2CCCCC2)c(=O)n(C2CCCCC2)c1=O ≤ 4.00
